Target: Human factor D (Homo sapiens (Human), UniProt P00746)
Sequence (P00746 26-253): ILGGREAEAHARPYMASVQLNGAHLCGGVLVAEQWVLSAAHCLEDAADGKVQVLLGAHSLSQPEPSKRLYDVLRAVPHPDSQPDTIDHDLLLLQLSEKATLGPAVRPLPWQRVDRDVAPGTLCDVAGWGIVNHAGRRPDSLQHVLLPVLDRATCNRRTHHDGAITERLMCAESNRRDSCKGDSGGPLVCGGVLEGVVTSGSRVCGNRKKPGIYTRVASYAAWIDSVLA
Test: Human Factor D Assay
Format: biochemical
Settings: human factor D 80 nM, substrate Z-L-Lys-SBzl, DTNB
pIC50: −log10 of the molar value.
Quantity kind: pIC50

Enquiry: Recorded pIC50 of CC(=O)c1cn(CC(=O)N2[C@@H]3C[C@@H]3C[C@H]2C(=O)Nc2cccc(-c3ccccc3Cl)c2F)c2ccc(-c3cncnc3)cc12 , please.
Return: > 6.00

***
Enquiry: For the compound NC(=O)c1nn(CC(=O)N2C[C@H](F)C[C@H]2C(=O)Nc2c[nH]nc2-c2ccc(Cl)cc2Cl)c2ccc(-c3ccnnc3)cc12 , what pIC50 is on record?
Return: < 5.00

Enquiry: # lookup: pIC50 of NC(=O)c1nn(CC(=O)N2C[C@H](F)C[C@H]2C(=O)Nc2cccc(-c3ccccc3Cl)c2F)c2cnc(-c3cncnc3)cc12
Return: > 6.00
